Test system: human forearm skin
protocol_description: Procedure B primary irritation study in humans (Finn Chambers, 24 hours, 0-4 erythema score)
measurement_conditions: in vivo
parameter: Erythema Rating

compound | obs_value
CCCCCCCCCCCCCCCCCC(=O)OCCCC [butyl stearate] | 0
CCCCCCCCCCCCCC(=O)OC(C)C [isopropyl myristate] | 0.3
CCCCCCCC/C=C\CCCCCCCC(=O)O | 0
C=CCCCCCCCCC(=O)O | 0

====

System: human forearm skin
protocol_description: Procedure B primary irritation study in humans (Finn Chambers, 24 hours, 0-4 erythema score)
measurement_conditions: Procedure B, human forearm, 24 hours; score 0-4

molecule | Erythema Rating
CN(C)CCC(c1ccc(Cl)cc1)c1ccccn1 (stereo not shown) | 4.0
CCCCCCCC/C=C\CCCCCCCC(=O)OCCC [propyl oleate] | 0
CCCCCCCC/C=C\CCCCCCCC(=O)OC(C)C [isopropyl oleate] | 0
CCCCC/C=C\C/C=C\CCCCCCCC(=O)O | 0
